- Experimental target: CYP3A4 (Homo sapiens, UniProt P08684)
- Construct: native enzyme in pooled human liver microsomes (200 donors, male and female; Sekisui XenoTech), isoform-selective P450-Glo CYP3A4 kit
- Sequence (P08684 2-503): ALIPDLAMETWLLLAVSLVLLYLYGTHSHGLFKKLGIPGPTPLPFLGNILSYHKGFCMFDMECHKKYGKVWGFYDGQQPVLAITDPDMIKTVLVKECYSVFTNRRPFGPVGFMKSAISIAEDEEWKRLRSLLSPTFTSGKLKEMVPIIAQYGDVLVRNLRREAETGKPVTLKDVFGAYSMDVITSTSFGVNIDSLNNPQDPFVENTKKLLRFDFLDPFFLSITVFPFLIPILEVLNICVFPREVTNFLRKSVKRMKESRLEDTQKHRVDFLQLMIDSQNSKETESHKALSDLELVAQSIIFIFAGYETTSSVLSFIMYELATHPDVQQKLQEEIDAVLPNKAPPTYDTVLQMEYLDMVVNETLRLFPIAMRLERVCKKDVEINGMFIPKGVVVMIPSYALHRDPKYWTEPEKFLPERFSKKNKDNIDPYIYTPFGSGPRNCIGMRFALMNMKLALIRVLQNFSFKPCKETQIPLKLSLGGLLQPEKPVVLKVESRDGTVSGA
- Experiment summary: P450-Glo luminescence inhibition assay
- Assay type: biochemical
- Condition description: read-out: CYP3A4 IC50
pIC50: −log10 of the molar value.
# maps each entry to its pIC50

Compound | Limit sign | pIC50
CC1(C)[C@H]2CC[C@]1(C)C(=O)C2 [Camphor (-)] | < | 3.22
C=C1C(=O)O[C@@]23[C@H]1CC[C@@H](C)[C@@H]2CC[C@@]1(C)O[C@@H]31 | = | 4.91
O=c1c(O)c(-c2ccc(O)c(O)c2)oc2cc(O)cc(O)c12 | = | 5.34
COc1cc2oc(-c3ccc(O)c(O)c3)c(OC)c(=O)c2c(O)c1OC | = | 4.64
C[C@@H]1CC[C@H]2[C@@H](C)C(=O)O[C@@H]3O[C@@]4(C)CC[C@@H]1[C@]32O4 | < | 3.22

----------
- Experimental target: CYP3A4 (Homo sapiens, UniProt P08684)
- Construct: native enzyme in pooled human liver microsomes (200 donors, male and female; Sekisui XenoTech), isoform-selective P450-Glo CYP3A4 kit
- Experiment summary: P450-Glo luminescence inhibition assay
- Format: biochemical
- Condition description: read-out: CYP3A4 IC50
pIC50: −log10 of the molar value.
pIC50 values, listed per item
Quantity name: pIC50

Molecule | Limit sign | Number
CC1(C)[C@@H]2CC[C@@]1(C)C(=O)C2 [Camphor (+)] | < | 3.22
C=C(C(=O)O)[C@@H]1CC[C@@H](C)[C@@H]2CCC(C)=C[C@@H]21 | = | 3.62
COc1cc(-c2oc3cc(OC)c(OC)c(O)c3c(=O)c2OC)ccc1O | = | 4.66
O=c1c(O)c(-c2ccc(O)cc2)oc2cc(O)cc(O)c12 | = | 4.47

----------
- Experimental target: CYP3A4 (Homo sapiens)
- Construct: native enzyme in pooled human liver microsomes (200 donors, male and female; Sekisui XenoTech), isoform-selective P450-Glo CYP3A4 kit
- Experiment summary: P450-Glo luminescence inhibition assay
- Type: biochemical
- Condition description: read-out: CYP2B6 IC50
pIC50: −log10 of the molar value.

Given smiles | pIC50
O=C(/C=C/c1ccc(O)c(O)c1)O[C@@H]1C[C@](O)(C(=O)O)C[C@@H](O)[C@H]1O | < 3.22
